Experiment Notes: folding stability dG unfold (combined trypsin and chymotrypsin); higher = more stable

# Chain, Result Comparator, folding stability dG unfold [kcal/mol]
data = [
    ("SAGGGWEKIPITPNDKNQAKEIADEFADKLQQDPGIPKEVEIDVQPPPNNQYWIEVEYPGKKLEIPISAGGS [r16_356_TrROS]", "<", -1),
    ("SAGGSAGGSAGGSPVLKTEEKALPNGTVVTTEFLPGGRRREVITPPDGTVKVVEREIERSAGGSAGGSAGGS [r10_1184_JUSTAS]", "=", -0.0994),
    ("SAGGMTLTLTIKVKTTTVEKDAATGKETVRTETRTLTVTIEAESEEEALAALKKLLEELGFEIVEVTSAGGS [r16_459_TrROS_Hall]", "=", 4.89),
    ("SKPVLVKVKIVTKNKNGKKIEKELVIEMSEEDLEKLLEELLNDPNLKDVEKIEIEVVDAETGEVYTFTFPSA [r9_97_TrROS_Hall]", "=", 2.89),
    ("SAGGSAGGSPMPILSASADPGPDGTRTLTLRLGDKTVTFTVPASRPALIPAPADSVISLDPAGSAGGSAGGS [r12_373_TrMRF]", "=", -0.64),
    ("SMEPPVPKIKARLVEVREEGERPRALFEIEEIEDAPPEIEELFKRGAKIEVEIPPDYPLKEDEEIEVDPLSA [r9_557_TrMRF]", "=", 0.0252),
    ("SAKKKFKVKEVKVTKHKGKFKIGDKEIEKELYTVNVVIEDENGNKYPFTFTFEKPEELKKFVEKLEEEKSAG [r14_36_TrMRF]", "=", 3.61),
]

---

Experiment Notes: folding stability dG unfold from trypsin proteolysis; higher = more stable
# folding stability dG unfold values compiled below
Parameter: folding stability dG unfold (kcal/mol)

# Chain, Val
records = [
    ("SAGGSAGGSASKTIFIPAAVVAANPEKAVEFAEKVREEFEKKGLSVKTEVLPDGGIGIHVGSAGGSAGGSAG [r3_75_TrMRF]", 2.07),
    ("SAGKYKIKNVQFSNNSITIEIYDDGKPKAEIPIPPNFPNMKVDAEIDEDGSIKIKFRFNGQPQEIEIPPSAG [r5_533_TrROS]", 0.819),
    ("SAGGMLTLIDPETGEPFLTTPIATFTVPVTLTGPDGKPLETRTLRITLFRAYRPDGSPALILLVSPESAGGS [r8_214_TrMRF]", 3.7),
    ("SAGGSAGGSAMKTSSGTVSFPDSTVKLSYENFGDGSVKKSVVEVVSRPPPPPVPPSNPHYLQSAGGSAGGSA [r18_176_JUSTAS]", 0.667),
    ("SPYFMFPIDDIKVEKERDPDDGKKTYEMRVEGPNGNPFRIEFNPKDGMIHIEFPPGMKLRPGDTFELTIRSA [r9_509_TrROS]", 2.09),
    ("SAKLTLEIEVNGKKYKAEITSVDEETGTVTIKVTFPDGSTQTLTLTFPPAPPPKVEKVYVVDKDGKLLKSAG [r14_466_TrROS_Hall]", 0.644),
    ("SAGGSAGGSATIKIKVPPGEPYMIRIRWPDGKSHEHNVPPGEEITIPPDNFDGITPIEIQPYSAGGSAGGSA [r18_210_TrROS]", 0.288),
]

---

Experiment Notes: folding stability dG unfold (combined trypsin and chymotrypsin); higher = more stable
Parameter: folding stability dG unfold (kcal/mol)

# Chain, Result Comparator, Val
rows = [
    ("GSMTIPVVLPPGVRLPLSELWAIAKQYGGKLTATVYDPETGTSTSVTFPGGQLGDSTMAPGERTVNVTVVGS [r1_238_JUSTAS]", "=", 0.759),
    ("SAGMKPNETLPNAIIRIENSKGKVKEFTLPNVVSIEEIDEKNGIITLTLPNNKKITLKVPKNAKITIEGSAG [r5_762_TrMRF]", "=", 3.37),
    ("SAGGSAGGSAGMTTYEGTDPEELREAVEAEAKARGVEIEITSVTTSPDGKYTLDVKVTPPSAGGSAGGSAGG [r11_304_JUSTAS]", "<", -1),
    ("SMVIPSSLGFEPALERVRALLPPERRYVVTELDPATGETTTATYDPATGTVTTTATPSAAGPPYVVVEVVSA [r9_1059_JUSTAS]", "=", -0.251),
    ("SAGGSAKKPKPGRLFLRYEEPEKGEVVEAVLTVYPNNVVELEVRRPDGKPVPLEKALKLLKELGLLSAGGSA [r15_872_TrMRF]", "=", 1.86),
    ("SAGGSAGGSMKITKSPSGYYTVTINLPNGTTVEIKVSTSDPNATDEQIIEIAKPKAEEILKKSSAGGSAGGS [r12_642_JUSTAS]", "=", 2.53),
    ("SMTLVLDVSPDKAYKFKIEYKTPDGKRLTVDADTTMEPDGTARVPLKIPDSSVPPGTPLEIEKVEVTPLLSA [r9_359_JUSTAS]", "=", 0.436),
    ("SAGSSAVEVDIDEELKEKLKKLIDPDKPIEITRLKTTTNETIILITEKGSGKKYIFTRNKEGKIEIKKSAGG [r19_70_JUSTAS]", "=", 2.38),
    ("SAGLKVESQTYDPATGTATVTPPLEGVPPDYTITVTDTATGKKTTLPPDGDVTLSNPTGPVTVTLTRPASAG [r14_134_JUSTAS]", "=", 0.277),
    ("SAGGSAGGMKEITITNENGETLRIKVFNKETGEEKEIEFPAGMSLEDILKKLKEEEGLEVEIEPSAGGSAGG [r6_202_TrROS_Hall]", "=", 3.01),
    ("SAGGSAGGSSMLTITKTYTLPPEEIKKIEGKPGVLKVEPFVTPEGKLVVKVEIRLEIGPEKLLLSAGGSAGG [r6_155_JUSTAS]", "=", 0.914),
    ("SAGGSAGGSAGGEIKGKKFKIVKIVEVRYDKETKEFYVRIYIEDTNEIITVRLEDLPEELSAGGSAGGSAGG [r7_304_TrROS_Hall]", "=", 2.25),
    ("SAGGSAGGSAGGSMVIKFTHPDGDPNLPVETLNLKKEELSEEKIKELKEKNPDIKIELKSAGGSAGGSAGGS [r4_422_JUSTAS]", "=", -0.326),
    ("SAGGSAGGSAGMELKIKVTLTPPGAPVPLTLELEVESEEEARERLEKEYPDREIELEVLESAGGSAGGSAGG [r17_428_JUSTAS]", "=", 0.143),
    ("SAGGSAGGSAGGMPLVRIEVTNENGEKFTFIFESEEEAKAAAEALGVDVKIEKIPPGEEISAGGSAGGSAGG [r7_456_TrROS_Hall]", "=", 2.92),
    ("SKGTFRAVLPLETLKELIERFKSKGYRIEVKPLSIKPFEVPGIREDGTPELFPVVEVEAEIEIYPPEDPASA [r9_991_TrMRF]", "=", 1.82),
    ("SMTISIPGGITITIEPKPNSYTLTVSFPDGSTVTRPVDPSDLTSAIKAVIREALRRADPNITEEEIEKLLSA [r9_634_JUSTAS]", ">", 6),
    ("SAGGGRARLIELKEARFNPETGVLELTALVEFPEIGTLVVFRIRVPLEGEPRIEIEVEVYPIKPGEASAGGS [r16_207_TrMRF]", "=", 4),
    ("SEAEVEVEVLPGPDAVVVRVRLPGRDEVVELRVLDPHPGEGRVLVAVSPGDDDTVVVRDLSPEDIKALLASA [r9_1221_TrMRF]", "=", 1.5),
    ("SAGGKEVKIEIEEKDGKLVIKITVKTEEELKEEIKKLLEEEFGLEVEEVKVEKNKNGEVTIYVVIKKKSAGG [r13_158_TrROS_Hall]", "=", 2.51),
    ("SAGGSAGGSAREELVRRAAEEGLPGVRVLAIPPGNREVPAIVEGDKVYSYDLPDDAEVVVASAGGSAGGSAG [r3_244_TrMRF]", "=", -0.0679),
    ("SAGGSAGGMKITIEKLDPEKGVYLLTVKPPGPGKTLVIELPVEKEEEALAFAKKLEELGYEVENSAGGSAGG [r6_796_TrMRF]", "=", 1.34),
    ("SAGGSAGGSAMTLNVPDAGGKTYTVEVLSYDPVKNTWTLLNPSTSETITITAEEAAKIKAAASAGGSAGGSA [r18_161_JUSTAS]", "=", 2.1),
    ("SPNWKIVEITEMERTDGRVTIKIKIKVPDGRIYIFMPNGKIIEEVPLGDDVELTITFPPNNWPIYIFVLDSA [r9_917_TrROS]", "=", 4.48),
    ("SAGGEGEELIIPSSFPLEKIEELEKAHPDAKAEIVEINLRGPVLLPGGGVRPVPSFLKVRLYRREERSAGGS [r8_172_TrMRF]", "<", -1),
    ("SAMPAENMTPEEAAELALAYVERFRAEVEALGGPIPADTEIVVPVTLEGPPVEIKITFINPDEVEVEVASAG [r14_501_TrMRF]", "=", 1.34),
    ("SAGGSAGGSAGMLYRALVPHPDGSFSTALSEDARELERELLEATGIPPENIKIEPIPLETSAGGSAGGSAGG [r17_169_TrMRF]", "<", -1),
]

The values you see were collected from the supplement of paper PMC12764529.
